Ref: patent US12617779B2

- assay-procedure: Evaluation of conversion rate to active form in buffer solution (Experimental Example 1)
- Type: physicochemical
- test-parameters: pH7.4, 0.5 hr, 37° C., 25 umol/L in buffer solution
- Method: For Examples 1 to 16 and Comparative Examples 1 to 14, the attrition rate of the test compound and the conversion rate of the test compound to Alvocidib in a buffer solution were calculated by the following method. Examples 1 to 16 and Comparative Examples 1 to 14 were each left in buffer solutions adjusted to pH 5.0, 5.5, 6.0, 6.5, 7.0 and 7.4, respectively, at a concentration of 25 umol/L at 37° C. […]
Entries and their Production rate of Alvocidib
Answer in %, number only, no unit symbol.

# count of solved cases: 3
>  <compound>
CCN(C[C@H]1CCCCN1)C(=O)Oc1cc(O)c2c(=O)cc(-c3ccccc3Cl)oc2c1[C@H]1CCN(C)C[C@H]1O

>  <Production rate of Alvocidib (%)>
38.7

$$$$
>  <compound>
COCCN(CC1CCCCN1)C(=O)Oc1cc(O)c2c(=O)cc(-c3ccccc3Cl)oc2c1[C@H]1CCN(C)C[C@H]1O (stereo partly shown)

>  <Production rate of Alvocidib (%)>
51.0

$$$$
>  <compound>
CCNC(=O)Oc1cc(O)c2c(=O)cc(-c3ccccc3Cl)oc2c1[C@H]1CCN(C)C[C@H]1O [Comparative Example 1, reference compound]

>  <Production rate of Alvocidib (%)>
99.1

$$$$

Query block: Entry CCN(CCC1CCCCN1)C(=O)Oc1cc(O)c2c(=O)cc(-c3ccccc3Cl)oc2c1[C@H]1CCN(C)C[C@H]1O (stereo partly shown) has what Production rate of Alvocidib?
Result block: 59.0

###

- assay-procedure: Evaluation of conversion rate to active form in buffer solution (Experimental Example 1)
- Type: physicochemical
- test-parameters: pH5.0, 0 hr, 37° C., 25 umol/L in buffer solution
value-kind: Residual rate (%)
Answer in %, number only, no unit symbol.

>  <compound>
CC(C)N(CC1CCCCN1)C(=O)Oc1cc(O)c2c(=O)cc(-c3ccccc3Cl)oc2c1[C@H]1CCN(C)C[C@H]1O (stereo partly drawn) [Example 10]

>  <Residual rate (%)>
90.6

$$$$
>  <compound>
CN1CC[C@H](c2c(OC(=O)N(CCC(F)(F)F)CC3CCCCN3)cc(O)c3c(=O)cc(-c4ccccc4Cl)oc23)[C@H](O)C1 (stereo partly drawn) [Example 13]

>  <Residual rate (%)>
82.1

$$$$

Query compound follows.
Query block: Entry CCN(C[C@@H]1CCCCN1)C(=O)Oc1cc(O)c2c(=O)cc(-c3ccccc3Cl)oc2c1[C@H]1CCN(C)C[C@H]1O [Example 1, ditrifluoroacetate] has what Residual rate?
Result block: 98.7

###

Entries and their Residual rate
- assay-procedure: Evaluation of conversion rate to active form in buffer solution (Experimental Example 1)
- Format: physicochemical
- test-parameters: pH6.5, 1 hr
Answer in %, number only, no unit symbol.

# count of solved cases: 2
>  <compound>
CNC(=O)Oc1cc(O)c2c(=O)cc(-c3ccccc3Cl)oc2c1[C@H]1CCN(C)C[C@H]1O [Comparative Example 2, reference compound]

>  <Residual rate, %>
0.0

$$$$
>  <compound>
CCOC(=O)O[C@@H]1CN(C)CC[C@@H]1c1c(O)cc(O)c2c(=O)cc(-c3ccccc3Cl)oc12 [Comparative Example 3, reference compound]

>  <Residual rate, %>
90.8

$$$$

Query block: Entry CNCCN(C)C(=O)Oc1cc(O)c2c(=O)cc(-c3ccccc3Cl)oc2c1[C@H]1CCN(C)C[C@H]1O [Comparative Example 14, reference compound] has what Residual rate?
Result block: 0.0
